- System Tested: human FcRn (probe in the FACS analysis of bacterially displayed Fc variants) (human, UniProt P55899 24-297; P61769 21-119, limits assumed)
- Sequence (P55899 24-297 limits assumed, change not shown, chain 1 of 2): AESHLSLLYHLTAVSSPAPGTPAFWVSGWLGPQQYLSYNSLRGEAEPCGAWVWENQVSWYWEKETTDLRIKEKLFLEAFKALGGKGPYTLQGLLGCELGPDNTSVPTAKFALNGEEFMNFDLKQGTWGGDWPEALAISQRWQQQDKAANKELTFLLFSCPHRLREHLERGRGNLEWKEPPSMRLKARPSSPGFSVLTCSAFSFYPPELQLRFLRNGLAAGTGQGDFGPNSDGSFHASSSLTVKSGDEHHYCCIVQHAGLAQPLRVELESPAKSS
- Sequence (P61769 21-119 limits assumed, change not shown, chain 2 of 2): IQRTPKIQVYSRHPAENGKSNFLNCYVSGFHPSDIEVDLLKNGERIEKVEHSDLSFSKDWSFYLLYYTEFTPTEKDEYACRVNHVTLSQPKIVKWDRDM
- Assay Name: FACS of bacterially displayed Fc variants with human FcRn, pH 6.0

Binder: Fc variant L309G/Q311T/M428L (bacterial display) (other, also called Q311T in M428L and L309G Fc variant) DKTHTCPPCPAPELLGGPSVFLFPPKPKDTLMISRTPEVTCVVVDVSHEDPEVKFNWYVDGVEVHNAKTKPREEQYNSTYRVVSVLTVGHTDWLNGKEYKCKVSNKALPAPIEKTISKAKGQPREPQVYTLPPSRDELTKNQVSLTCLVKGFYPSDIAVEWESNGQPENNYKTTPPVLDSDGSFFLYSKLTVDKSRWQQGNVFSCSVLHEALHNHYTQKSLSLSPGK
binding result: binds
--
Binder: Fc variant L309G/Q311K/M428L (bacterial display) (other, also called Q311K in M428L and L309G Fc variant) DKTHTCPPCPAPELLGGPSVFLFPPKPKDTLMISRTPEVTCVVVDVSHEDPEVKFNWYVDGVEVHNAKTKPREEQYNSTYRVVSVLTVGHKDWLNGKEYKCKVSNKALPAPIEKTISKAKGQPREPQVYTLPPSRDELTKNQVSLTCLVKGFYPSDIAVEWESNGQPENNYKTTPPVLDSDGSFFLYSKLTVDKSRWQQGNVFSCSVLHEALHNHYTQKSLSLSPGK
binding result: binds
--
Binder: Fc variant L309G/Q311I/M428L (bacterial display) (other, also called Q311I in M428L and L309G Fc variant) DKTHTCPPCPAPELLGGPSVFLFPPKPKDTLMISRTPEVTCVVVDVSHEDPEVKFNWYVDGVEVHNAKTKPREEQYNSTYRVVSVLTVGHIDWLNGKEYKCKVSNKALPAPIEKTISKAKGQPREPQVYTLPPSRDELTKNQVSLTCLVKGFYPSDIAVEWESNGQPENNYKTTPPVLDSDGSFFLYSKLTVDKSRWQQGNVFSCSVLHEALHNHYTQKSLSLSPGK
binding result: binds

Taken from patent US20230072197A1.
